Assay: HepG2 cytotoxicity, primary screen, cytotoxicity control for P. falciparum antimalarial project, cell-based, ATP luminescence (AID 2303)
Conditions: HepG2 viability, 24-48 h, at 10 µM, stronger effect = higher value
// assign Criterion met if inhibition falls strictly below 5%, else Criterion not met (ties count as Criterion not met)

1) CCN(CCCN1CCCCC1)c1cc(C)nc(Nc2ccc3c(c2)CCC3)n1 ... Criterion not met
2) O=C(Nc1ccc(-c2nc3ccccc3[nH]2)cc1)c1cccc(S(=O)(=O)N2CCCC2)c1 ... Criterion met
3) COc1ccc(Nc2ccnc3cc4ccccc4cc23)cc1 ... Criterion not met
4) COCCNCc1ncsc1-c1ccc2c(Nc3cc(O)c(Cl)cc3F)ccnc2c1 ... Criterion met
5) Cc1cc(OCCCN2CCC(NC(=O)c3ccc(Br)cc3)C2)c2ccccc2n1 (stereo not given) ... Criterion not met
6) C[C@H]1CN(Cc2ccc(-c3cccc(CNC(=O)c4cccc(C(=O)c5ccc(Cl)c(Cl)c5)c4)c3)s2)CCN1 ... Criterion met
7) CN(C)Cc1ccc(CNC2CCN(Cc3ccccc3Cl)CC2)cc1 ... Criterion not met
8) CNCC(C)(C)c1nc(-c2ccc(Cl)c(O)c2)c(-c2ccncc2)[nH]1 ... Criterion not met
